- System: A2780Cis (cisplatin-resistant human ovarian cancer)
- Procedure Summary: In vitro cytotoxicity, SRB assay, A2780Cis
- Assay type: cell-based
Assay Readout: SI A2780Cis
Number only, please.

- CC[C@@H](C(=O)[C@@H](C)[C@@H](O)[C@H](C)[C@@H]1O[C@@H]([C@@H](CC)C(=O)O)CC[C@@H]1C)[C@H]1O[C@]2(C=C[C@@H](NC(=O)OCCOC(C)(C)C)[C@]3(CC[C@@](C)([C@H]4CC[C@](O)(CC)[C@H](C)O4)O3)O2)[C@H](C)C[C@@H]1C: 43.6

Here's the next entry for you.
Short answer on A2780Cis (cisplatin-resistant human ovarian cancer) for CC[C@@H](C(=O)[C@@H](C)[C@@H](O)[C@H](C)[C@@H]1O[C@@H]([C@@H](CC)C(=O)O)CC[C@@H]1C)[C@H]1O[C@]2(C=C[C@@H](NC(=O)C(=O)NCc3ccccc3OC)[C@]3(CC[C@@](C)([C@H]4CC[C@](O)(CC)[C@H](C)O4)O3)O2)[C@H](C)C[C@@H]1C , SI A2780Cis: 79.2

====

Measured pIC50 accompanies every entry in the list below.
- System: PFSK-1 (malignant primitive neuroectodermal tumour)
- Procedure Summary: In vitro cytotoxicity, SRB assay, PFSK-1
- Assay type: cell-based
- Test Settings: Homo sapiens, PFSK-1; 72 h with compound, SRB; n/a = non-active compound; read-out: PFSK-1 IC50
Convention used: pIC50 is expressed as -log10 of the molar concentration.

* CC[C@@H](C(=O)[C@@H](C)[C@@H](O)[C@H](C)[C@@H]1O[C@@H]([C@@H](CC)C(=O)O)CC[C@@H]1C)[C@H]1O[C@]2(C=C[C@@H](NC(=O)Nc3ccccc3)[C@]3(CC[C@@](C)([C@H]4CC[C@](O)(CC)[C@H](C)O4)O3)O2)[C@H](C)C[C@@H]1C [FLC-00374-1] | 8.42

Recorded result, CCCNC(=S)N[C@@H]1C=C[C@]2(O[C@H]([C@@H](CC)C(=O)[C@@H](C)[C@@H](O)[C@H](C)[C@@H]3O[C@@H]([C@@H](CC)C(=O)O)CC[C@@H]3C)[C@@H](C)C[C@H]2C)O[C@@]12CC[C@@](C)([C@H]1CC[C@](O)(CC)[C@H](C)O1)O2 [FLC-00349-1] , pIC50: 7.56

Recorded result, CC[C@@H](C(=O)[C@@H](C)[C@@H](O)[C@H](C)[C@@H]1O[C@@H]([C@@H](CC)C(=O)O)CC[C@@H]1C)[C@H]1O[C@]2(C=C[C@@H](NC(=O)NCc3ccc(F)cc3)[C@]3(CC[C@@](C)([C@H]4CC[C@](O)(CC)[C@H](C)O4)O3)O2)[C@H](C)C[C@@H]1C [FLC-00383-1] , pIC50: 7.59

Recorded result, CC[C@@H](C(=O)[C@@H](C)[C@@H](O)[C@H](C)[C@@H]1O[C@@H]([C@@H](CC)C(=O)O)CC[C@@H]1C)[C@H]1O[C@]2(C=C[C@@H](NC(=O)Nc3ccc(F)cc3F)[C@]3(CC[C@@](C)([C@H]4CC[C@](O)(CC)[C@H](C)O4)O3)O2)[C@H](C)C[C@@H]1C [FLC-00359-1] , pIC50: 7.71

Recorded result, CC[C@@H](C(=O)[C@@H](C)[C@@H](O)[C@H](C)[C@@H]1O[C@@H]([C@@H](CC)C(=O)O)CC[C@@H]1C)[C@H]1O[C@]2(C=C[C@@H](NC(=O)NS(=O)(=O)c3ccccc3)[C@]3(CC[C@@](C)([C@H]4CC[C@](O)(CC)[C@H](C)O4)O3)O2)[C@H](C)C[C@@H]1C [FLC-00365-1] , pIC50: 5.21

Recorded result, CCCCCCCNC(=O)N[C@@H]1C=C[C@]2(O[C@H]([C@@H](CC)C(=O)[C@@H](C)[C@@H](O)[C@H](C)[C@@H]3O[C@@H]([C@@H](CC)C(=O)O)CC[C@@H]3C)[C@@H](C)C[C@H]2C)O[C@@]12CC[C@@](C)([C@H]1CC[C@](O)(CC)[C@H](C)O1)O2 [FLC-00350-1] , pIC50: 8.14

====

- System: A2780Cis (cisplatin-resistant human ovarian cancer)
- Procedure Summary: In vitro cytotoxicity, SRB assay, A2780Cis
- Assay type: cell-based
Assay Readout: SI A2780Cis
Number only, please.

* CC[C@@H](C(=O)[C@@H](C)[C@@H](O)[C@H](C)[C@@H]1O[C@@H]([C@@H](CC)C(=O)O)CC[C@@H]1C)[C@H]1O[C@]2(C=C[C@@H](NC(=O)C3CCCC3)[C@]3(CC[C@@](C)([C@H]4CC[C@](O)(CC)[C@H](C)O4)O3)O2)[C@H](C)C[C@@H]1C | 232.6
* CC[C@@H](C(=O)[C@@H](C)[C@@H](O)[C@H](C)[C@@H]1O[C@@H]([C@@H](CC)C(=O)O)CC[C@@H]1C)[C@H]1O[C@]2(C=C[C@@H](NC(=O)C(C)(C)CCl)[C@]3(CC[C@@](C)([C@H]4CC[C@](O)(CC)[C@H](C)O4)O3)O2)[C@H](C)C[C@@H]1C | 179.1

Here's the next entry for you.
Short answer on A2780Cis (cisplatin-resistant human ovarian cancer) for CC[C@@H](C(=O)[C@@H](C)[C@@H](O)[C@H](C)[C@@H]1O[C@@H]([C@@H](CC)C(=O)O)CC[C@@H]1C)[C@H]1O[C@]2(C=C[C@@H](NC(=O)N3CCC3)[C@]3(CC[C@@](C)([C@H]4CC[C@](O)(CC)[C@H](C)O4)O3)O2)[C@H](C)C[C@@H]1C , SI A2780Cis: 15.2

====

- System: NCI-H23 (human lung cancer)
- Procedure Summary: In vitro cytotoxicity, SRB assay, NCI-H23
- Assay type: cell-based
- Test Settings: Homo sapiens, NCI-H23; 72 h with compound, SRB; n/a = non-active compound; read-out: NCI-H23 IC50
Assay Readout: pIC50
Convention used: pIC50 is expressed as -log10 of the molar concentration.

- CCCCNC(=S)N[C@@H]1C=C[C@]2(O[C@H]([C@@H](CC)C(=O)[C@@H](C)[C@@H](O)[C@H](C)[C@@H]3O[C@@H]([C@@H](CC)C(=O)O)CC[C@@H]3C)[C@@H](C)C[C@H]2C)O[C@@]12CC[C@@](C)([C@H]1CC[C@](O)(CC)[C@H](C)O1)O2: 7.74
- CC[C@@H](C(=O)[C@@H](C)[C@@H](O)[C@H](C)[C@@H]1O[C@@H]([C@@H](CC)C(=O)O)CC[C@@H]1C)[C@H]1O[C@]2(C=C[C@@H](NC(=S)Nc3cc(C(F)(F)F)cc(C(F)(F)F)c3)[C@]3(CC[C@@](C)([C@H]4CC[C@](O)(CC)[C@H](C)O4)O3)O2)[C@H](C)C[C@@H]1C: 6.01
- CCCNC(=S)N[C@@H]1C=C[C@]2(O[C@H]([C@@H](CC)C(=O)[C@@H](C)[C@@H](O)[C@H](C)[C@@H]3O[C@@H]([C@@H](CC)C(=O)O)CC[C@@H]3C)[C@@H](C)C[C@H]2C)O[C@@]12CC[C@@](C)([C@H]1CC[C@](O)(CC)[C@H](C)O1)O2: 7.12

Recorded result, CC[C@@H](C(=O)[C@@H](C)[C@@H](O)[C@H](C)[C@@H]1O[C@@H]([C@@H](CC)C(=O)O)CC[C@@H]1C)[C@H]1O[C@]2(C=C[C@@H](NC(=S)NCC(C)C)[C@]3(CC[C@@](C)([C@H]4CC[C@](O)(CC)[C@H](C)O4)O3)O2)[C@H](C)C[C@@H]1C , pIC50: 8.22

====

- Tested on: MIA PaCa-2 (human pancreatic cancer)
- Procedure Summary: cells
- Type: cell-based
- Test Settings: Table 4; MIA PaCa-2 human pancreatic cancer cells; read-out: IC50 (nM) MIA PaCa-2
Measured IC50 accompanies every entry in the list below.
Respond numerically; units are nM and should not be typed.

Below are worked cases with known answers.
• CC[C@@H](C(=O)[C@@H](C)[C@@H](O)[C@H](C)[C@@H]1O[C@@H]([C@@H](CC)C(=O)O)CC[C@@H]1C)[C@H]1O[C@]2(C=C[C@@H](NC(=S)NC(C)C)[C@]3(CC[C@@](C)([C@H]4CC[C@](O)(CC)[C@H](C)O4)O3)O2)[C@H](C)C[C@@H]1C [FLC-00387-1] = 9.71
• CC[C@@H](C(=O)[C@@H](C)[C@@H](O)[C@H](C)[C@@H]1O[C@@H]([C@@H](CC)C(=O)O)CC[C@@H]1C)[C@H]1O[C@]2(C=C[C@@H](NC(=O)OCCOC)[C@]3(CC[C@@](C)([C@H]4CC[C@](O)(CC)[C@H](C)O4)O3)O2)[C@H](C)C[C@@H]1C [FLC-00459-1•Na] = 78.3
• CC[C@@H](C(=O)[C@@H](C)[C@@H](O)[C@H](C)[C@@H]1O[C@@H]([C@@H](CC)C(=O)O)CC[C@@H]1C)[C@H]1O[C@]2(C=C[C@@H](NC(N)=O)[C@]3(CC[C@@](C)([C@H]4CC[C@](O)(CC)[C@H](C)O4)O3)O2)[C@H](C)C[C@@H]1C [FLC-00391-1] = 3090
• CC[C@@H](C(=O)[C@@H](C)[C@@H](O)[C@H](C)[C@@H]1O[C@@H]([C@@H](CC)C(=O)O)CC[C@@H]1C)[C@H]1O[C@]2(C=C[C@@H](NC(=O)OC(CCl)CCl)[C@]3(CC[C@@](C)([C@H]4CC[C@](O)(CC)[C@H](C)O4)O3)O2)[C@H](C)C[C@@H]1C [FLC-00440-1•Na] = 43.6
• CC[C@@H](C(=O)[C@@H](C)[C@@H](O)[C@H](C)[C@@H]1O[C@@H]([C@@H](CC)C(=O)O)CC[C@@H]1C)[C@H]1O[C@]2(C=C[C@@H](NC(=O)C3CCCC3)[C@]3(CC[C@@](C)([C@H]4CC[C@](O)(CC)[C@H](C)O4)O3)O2)[C@H](C)C[C@@H]1C [FLC-00455-1•Na] = 33

Recorded result, N.N.[Cl][Pt][Cl] [Cisplatin, cisplatin, reference compound] , IC50: 2360

Recorded result, C=CCOC(=O)N[C@@H]1C=C[C@]2(O[C@H]([C@@H](CC)C(=O)[C@@H](C)[C@@H](O)[C@H](C)[C@@H]3O[C@@H]([C@@H](CC)C(=O)O)CC[C@@H]3C)[C@@H](C)C[C@H]2C)O[C@@]12CC[C@@](C)([C@H]1CC[C@](O)(CC)[C@H](C)O1)O2 [FLC-00425-1•Na] , IC50: 269

Recorded result, CC[C@@H](C(=O)[C@@H](C)[C@@H](O)[C@H](C)[C@@H]1O[C@@H]([C@@H](CC)C(=O)O)CC[C@@H]1C)[C@H]1O[C@]2(C=C[C@@H](NC(=O)OCCOc3ccccc3)[C@]3(CC[C@@](C)([C@H]4CC[C@](O)(CC)[C@H](C)O4)O3)O2)[C@H](C)C[C@@H]1C [FLC-00460-1•Na] , IC50: 13.6
